# System: HOP-62 NSCLC
# ASSAY PROTOCOL: NCI tumour cell line growth inhibition, 48 h
Measured TGI, listed per entry.

{"MOLECULE": "COc1ccc(N2NC(c3ccccc3)(c3ccccc3)C(C)C2=O)cc1 (stereo unspecified)", "TGI": "> 100 µM"}
{"MOLECULE": "O=C(CC/C(CC(=O)c1ccc(Br)cc1)=N\\O)Nc1ccc(Cl)c(Cl)c1", "TGI": "> 100 µM"}
{"MOLECULE": "N#CC(C#N)=C1C(=O)NC(N)=C1C#N", "TGI": "> 100 µM"}
{"MOLECULE": "Cc1cc(Nc2cc(N)ncn2)c(=O)n2c1C(=O)NC21CCCCC1", "TGI": "> 100 µM"}
{"MOLECULE": "CS(=O)(=O)N(c1cc(-c2ccc3ncnc(Nc4cccc(Cl)c4)c3c2)cnc1Cl)S(C)(=O)=O", "TGI": "12.8 µM"}
{"MOLECULE": "CC1(C)CCc2c(c(N=Nc3ccc(F)cc3)c3ccccc3c2O)O1", "TGI": "57.3 µM"}
{"MOLECULE": "Cc1ccc(NC(=O)CSC(N)=O)cc1C", "TGI": "> 100 µM"}
{"MOLECULE": "O=[N+]([O-])c1cccc2nccc(NCCCO)c12", "TGI": "35.4 µM"}
{"MOLECULE": "NC1CC=C(COC(=O)C(O)(c2ccccc2)C2CC2)CC1 (stereo unspecified)", "TGI": "> 100 µM"}
{"MOLECULE": "COc1ccc(C[C@H](N)C(=O)N2C[C@@H](CO)C[C@@H](n3ccc(=O)[nH]c3=O)C2)cc1", "TGI": "> 100 µM"}
{"MOLECULE": "O=C(NC(=S)Nc1cc(Cl)ccc1O)c1cccc(Br)c1", "TGI": "> 100 µM"}
{"MOLECULE": "C=CCn1c(-c2ccc([N+](=O)[O-])cc2)csc1=N", "TGI": "> 100 µM"}
{"MOLECULE": "Cc1ccc(N=C2C(=Nc3ccc(C)cc3)N(c3ccc(C)cc3)C(=S)N2C(=O)c2ccccc2)cc1", "TGI": "> 100 µM"}
{"MOLECULE": "COc1cccc2c1n([O-])c1cccc(OC)c1[n+]2=O", "TGI": "36.7 µM"}
{"MOLECULE": "CC[C@H](C)C(=O)O[C@H]1C[C@H](O)C=C2C=C[C@H](C)[C@H](CC[C@@H](O)C[C@@H](O)CC(=O)O)[C@H]21", "TGI": "> 100 µM"}
{"MOLECULE": "CC(C)=CCCC(C)C1=C(O)C(=O)C(C)=CC1=O (stereo unspecified)", "TGI": "36.9 µM"}
{"MOLECULE": "O=S1Nc2c(Cl)cc(Cl)c(Cl)c2S1 (stereo unspecified)", "TGI": "> 100 µM"}
{"MOLECULE": "CC(=O)[CH-]C(=O)c1ccccc1.CC(=O)[CH-]C(=O)c1ccccc1.CC[O-].O=C1c2ccccc2C(=O)c2c1ccc(O)c2[O-].[Ti+4]", "TGI": "> 100 µM"}
{"MOLECULE": "Nc1ncc(-c2cccc(S(N)(=O)=O)c2)c2scc(-c3ccc(F)c(Cl)c3)c12", "TGI": "12.6 µM"}
{"MOLECULE": "CC#Cc1nc(Nc2cc(C)[nH]n2)c2ccccc2n1", "TGI": "39.7 µM"}
{"MOLECULE": "CCOc1ccc2c(c1)c(=O)c1c(NCCN(CC)CC)ccc3nnn2c31", "TGI": "> 48.8 µM"}
